Kindly supply the reported pEC50 values for the records listed here.
# Test system: HCV 1a-H77 subgenomic replicon
# test.method.notes: microbe, parasite or virus in culture
# Format: cell-based, HCV genotype 1a
# experimental.context: Hepatitis C virus, stable replicon, strain 1a H77, 5% FBS; read-out: 1a H77 5% FBS EC50
Give bare numbers, as −log10 of the molar value.

Take each entry in turn and give its pEC50.
1. CC(C)=CCN(c1cc2oc(-c3ccc(F)cc3)c(-c3ncc[nH]3)c2cc1C1CC1)S(C)(=O)=O
2. CS(=O)(=O)N(CC1CCCCC1)c1cc2oc(-c3ccc(F)cc3)c(-c3ncc[nH]3)c2cc1C1CC1
3. COCCN(c1cc2oc(-c3ccc(F)cc3)c(-c3ncc[nH]3)c2cc1C1CC1)S(C)(=O)=O

1. 7.05
2. 7.06
3. 7.09
